- method: Basic solubility at 25° C. in ethanol, PEG 400, propylene glycol (PG) and buffer solution; solubility ratio non-aqueous solvent / buffer solution
- test-context: 25° C.
measured-property: Solubility, PG (propylene glycol) (%)

{"molecule": "C=C(C)[C@H]1Cc2c(ccc3c2O[C@@H]2COc4cc(OC)c(OC)cc4[C@@H]2C3=O)O1", "Solubility, PG (propylene glycol) (%)": 0.1184}

1: O=C1Nc2ccc(Cl)cc2[C@@](C#CC2CC2)(C(F)(F)F)O1
2: COC1=CC(=O)C[C@@H](C)[C@]12Oc1c(Cl)c(OC)cc(OC)c1C2=O
3: CC1(C)O[C@@H]2C[C@H]3[C@@H]4CCC5=CC(=O)C=C[C@]5(C)[C@H]4[C@@H](O)C[C@]3(C)[C@]2(C(=O)CO)O1 [Desonide]
4: CC1(C)O[C@@H]2C[C@H]3[C@@H]4C[C@H](F)C5=CC(=O)C=C[C@]5(C)[C@@]4(F)[C@@H](O)C[C@]3(C)[C@]2(C(=O)CO)O1 [Fluocinolone acetonide]
Q: Descending sort on Solubility, PG (propylene glycol) required. Ranked list of labels, please, in the requested order.
Result: 1, 4, 3, 2

----------
- Protocol: Fujifilm Wako Pure Chemical The poorly soluble compound content in the recovered filtrate was measured by liquid chromatography specified below (Shimadzu (Kyoto), high performance liquid chromatograph Prominence). As the standard product of triamcinolone acetonide, a reagent from the Pharmaceutical and Medical Device Regulatory Science Society of Japan (Japan) was used. • 50 μL of sample solution and standard solution was measured by liquid chromatography under the following conditions. […]
measured-property: Solubility scale factor at 5° C. 30% PEG 4000/10% poloxamer 407

I: C[C@@H]1C[C@H]2[C@@H]3CCC4=CC(=O)C=C[C@]4(C)[C@@]3(F)[C@@H](O)C[C@]2(C)[C@@]1(O)C(=O)CO [dexamethasone]
II: COc1cc2nccc(Oc3ccc(NC(=O)C4(C(=O)Nc5ccc(F)cc5)CC4)cc3)c2cc1OC [Cabozantinib]
III: COC(=O)Nc1nc2cc(C(=O)c3ccc(F)cc3)ccc2[nH]1 [Flubendazole]
Q: Arrange these compounds by their Solubility scale factor at 5° C. 30% PEG 4000/10% poloxamer 407, starting with the largest number. To answer, arrange all of the labels according to the requested order.
Result: II, III, I

I: O=C1CCc2cc(OCCCCc3nnnn3C3CCCCC3)ccc2N1 [Cilostazol]
II: COC1=CC(=O)C[C@@H](C)[C@]12Oc1c(Cl)c(OC)cc(OC)c1C2=O [Griseofulvin]
Q: Just curious, which one has the larger Solubility scale factor at 5° C. 30% PEG 4000/10% poloxamer 407 reading, I or II ? # reply format: chosen label
Result: II

a: CC1(C)O[C@@H]2C[C@H]3[C@@H]4CCC5=CC(=O)C=C[C@]5(C)[C@@]4(F)[C@@H](O)C[C@]3(C)[C@]2(C(=O)CO)O1 [Triamsinolone acetonide]
b: CNC(=O)c1cc(Oc2ccc(NC(=O)Nc3ccc(Cl)c(C(F)(F)F)c3)cc2)ccn1 [Soraf ? nib]
Q: Pick one: a or b . Which has the bigger Solubility scale factor at 5° C. 30% PEG 4000/10% poloxamer 407 number? Respond with the label that goes with your answer.
Result: b

----------
- method: Basic solubility at 25° C. in ethanol, PEG 400, propylene glycol (PG) and buffer solution; solubility ratio non-aqueous solvent / buffer solution
- test-context: 25° C.; buffer pH 7.0 (pH 7.4 for cabozantinib and telmisartan; pH 6.0 for rebamipide)
measured-property: Solubility ratio of solvent with respect to buffer solution Ethanol/buffer solution

A: COC1=CC(=O)C[C@@H](C)[C@]12Oc1c(Cl)c(OC)cc(OC)c1C2=O
B: O=C1Nc2ccc(Cl)cc2[C@@](C#CC2CC2)(C(F)(F)F)O1
Q: Lab note: record which item had the higher Solubility ratio of solvent with respect to buffer solution Ethanol/buffer solution, A or B . Give the label of your selection.
Result: B

I: Cc1ccc(-c2cc(C(F)(F)F)nn2-c2ccc(S(N)(=O)=O)cc2)cc1
II: C[C@@H](O[C@H]1OCCN(Cc2n[nH]c(=O)[nH]2)[C@H]1c1ccc(F)cc1)c1cc(C(F)(F)F)cc(C(F)(F)F)c1 [Aprepitant]
III: CC1(C)O[C@@H]2C[C@H]3[C@@H]4CCC5=CC(=O)C=C[C@]5(C)[C@H]4[C@@H](O)C[C@]3(C)[C@]2(C(=O)CO)O1 [Desonide]
Q: Please give the order of these compounds when sorted by Solubility ratio of solvent with respect to buffer solution Ethanol/buffer solution, largest value leading. Give the order by naming the labels one after another as requested.
Result: II, I, III
(II: 129308.39, I: 80774.38, III: 270.67)

P: O=C(NC(Cc1cc(=O)[nH]c2ccccc12)C(=O)O)c1ccc(Cl)cc1 (centres unmarked) [Rebamipide]
Q: O=C1CCc2cc(OCCCCc3nnnn3C3CCCCC3)ccc2N1
R: CNC(=O)c1cc(Oc2ccc(NC(=O)Nc3ccc(Cl)c(C(F)(F)F)c3)cc2)ccn1
Q: Order the 3 compounds from highest to lowest Solubility ratio of solvent with respect to buffer solution Ethanol/buffer solution. Give the order by naming the labels one after another as requested.
Result: R, Q, P
